Values compiled from PubChem BioAssay.

Assayed system: Receptor tyrosine-protein kinase erbB-2 (Homo sapiens)
Method: reducers of endogenous Her2 protein level, primary screen, SKBR3 breast tumor cells, AlphaScreen, ATP viability (AID 461);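 further: lower value means less Her2 protein in the cells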
Cond: 18-24 h, at 10 µM, stronger effect = lower value
Outcome measure: Her2 level (%)
Dear colleague, please return just the value in %, with no unit written.

Use these answered entries as a reference point.
Provide one value: measured Her2 level of CCOc1ccccc1C(=O)NCC(=O)OCC(=O)N1C(C)CCCC1C (stereo unspecified)
89

Provide one value: measured Her2 level of CN1C(=O)C(O)(CC(=O)c2ccc3c(c2)OCO3)c2ccccc21 (stereo unspecified)
90.5

Provide one value: measured Her2 level of Cc1cc2oc(C(=O)NC3CCS(=O)(=O)C3)c(C)c2cc1C (stereo unspecified)
98

Provide one value: measured Her2 level of CC(=O)Nc1cccc(NC(=O)C2CCCN2C(=O)Nc2ccc(C)cc2)c1 (stereo unspecified)
93.5

Provide one value: measured Her2 level of CC(C)COC(=O)C(C#N)c1nc2ccccc2nc1N1CCN(Cc2ccccc2)CC1 (stereo unspecified)
85.5

Next compound, Her2 level to be filled in.
Provide one value: measured Her2 level of CCOc1cc(C2/C(=C(/O)c3ccc(OC(C)C)cc3)C(=O)C(=O)N2CCCOC)ccc1O (stereo unspecified)
83.5
